Every entry's value here was drawn from paper PMC8273037.

# experimental_protocol: Cytotoxicity in C-33 A cells
# Assay type: cell-based
# run_conditions: human
quantity_kind: CC50

| compound | result |
| --- | --- |
| Nc1nc2c(ncn2CCOCP(=O)(O)O)c(=O)[nH]1 [9-[2-(Phosphonomethoxy)ethyl]guanine] | > 150 µM |

---

# Test system: Human papillomavirus 11, strain HE611260.1
# experimental_protocol: HPV-11 NanoLuc reporter replication assay
# Type: cell-based
# run_conditions: human papillomavirus 11, C-33-A, read-out: EC50 (reduced viral replication by 50%)

| compound | EC50 [nM] |
| --- | --- |
| Nc1nc2c(ncn2CCOCP(=O)(O)O)c(=O)[nH]1 [9-[2-(Phosphonomethoxy)ethyl]guanine] | 680 |
